# target or test system: fibrinogen binding to thrombin-stimulated platelets (GPIIb/IIIa fibrinogen receptor) (Homo sapiens, UniProt P05106+P08514)
# Construct: endogenous in cells
# assay procedure: Inhibition of radiolabeled (125I) fibrinogen binding assay
# conditions used: thrombin-stimulated washed platelets; 125I-fibrinogen held at 0.176 μmol/liter (60 μg/ml); 22°-25° C.
Where a SMILES comes first, the peptide text is derived from it. [ ]: non-standard residue; d: D form. Inp = O=C(O)C1CCNCC1

>  <molecule>
CC(C)[C@H](NC(=O)[C@H](CC(=O)O)NC(=O)CNC(=O)C1CCCN(C(=N)N)C1)C(=O)O (stereo partly shown)

>  <IC50>
10.5 µM

$$$$
>  <molecule>
CC(C)[C@H](NC(=O)[C@H](CC(=O)O)NC(=O)CNC(=O)C1CCN(C(=N)N)CC1)C(=O)O

>  <IC50>
1.8 µM

$$$$
>  <molecule>
CC(C)[C@H](NC(=O)[C@H](CC(=O)O)NC(=O)CNC(=O)C1CCCNC1)C(=O)O (stereo partly shown)

>  <IC50>
> 64 µM

$$$$
>  <molecule>
CC(C)[C@H](NC(=O)[C@H](CC(=O)O)NC(=O)CNC(=O)C1CCNCC1)C(=O)O (H-[Inp]GDV-OH)

>  <IC50>
10.5 µM

$$$$

---

# target or test system: Human Platelets (Homo sapiens, UniProt P05106+P08514)
# Sequence (P08514 32-1039): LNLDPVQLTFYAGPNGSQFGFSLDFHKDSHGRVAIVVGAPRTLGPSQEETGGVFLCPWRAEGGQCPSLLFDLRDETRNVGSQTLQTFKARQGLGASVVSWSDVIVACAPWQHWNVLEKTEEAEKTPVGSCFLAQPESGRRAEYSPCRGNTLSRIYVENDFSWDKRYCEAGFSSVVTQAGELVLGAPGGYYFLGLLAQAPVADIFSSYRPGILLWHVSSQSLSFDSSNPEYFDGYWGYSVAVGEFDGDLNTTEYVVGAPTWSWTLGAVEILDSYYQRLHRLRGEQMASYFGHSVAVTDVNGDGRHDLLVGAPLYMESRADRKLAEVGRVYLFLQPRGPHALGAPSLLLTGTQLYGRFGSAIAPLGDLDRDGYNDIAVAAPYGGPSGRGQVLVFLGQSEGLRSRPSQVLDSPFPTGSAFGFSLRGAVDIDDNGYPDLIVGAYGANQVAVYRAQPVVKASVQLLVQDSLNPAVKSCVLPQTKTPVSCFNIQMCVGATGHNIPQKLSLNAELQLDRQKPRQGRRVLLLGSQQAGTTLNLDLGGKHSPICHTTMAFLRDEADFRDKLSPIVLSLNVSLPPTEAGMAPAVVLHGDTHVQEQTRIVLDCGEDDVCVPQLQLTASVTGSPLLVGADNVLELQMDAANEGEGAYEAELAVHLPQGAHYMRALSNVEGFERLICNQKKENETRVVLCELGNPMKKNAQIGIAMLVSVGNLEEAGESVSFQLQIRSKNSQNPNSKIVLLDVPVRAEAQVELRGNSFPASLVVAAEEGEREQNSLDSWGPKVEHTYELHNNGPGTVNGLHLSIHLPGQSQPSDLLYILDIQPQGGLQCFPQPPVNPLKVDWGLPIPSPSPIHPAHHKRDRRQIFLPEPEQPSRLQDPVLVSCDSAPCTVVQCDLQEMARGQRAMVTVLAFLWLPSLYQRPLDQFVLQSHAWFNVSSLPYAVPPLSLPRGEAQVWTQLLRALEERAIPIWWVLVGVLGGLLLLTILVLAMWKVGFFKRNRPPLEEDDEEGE
# Sequence (P05106 27-788): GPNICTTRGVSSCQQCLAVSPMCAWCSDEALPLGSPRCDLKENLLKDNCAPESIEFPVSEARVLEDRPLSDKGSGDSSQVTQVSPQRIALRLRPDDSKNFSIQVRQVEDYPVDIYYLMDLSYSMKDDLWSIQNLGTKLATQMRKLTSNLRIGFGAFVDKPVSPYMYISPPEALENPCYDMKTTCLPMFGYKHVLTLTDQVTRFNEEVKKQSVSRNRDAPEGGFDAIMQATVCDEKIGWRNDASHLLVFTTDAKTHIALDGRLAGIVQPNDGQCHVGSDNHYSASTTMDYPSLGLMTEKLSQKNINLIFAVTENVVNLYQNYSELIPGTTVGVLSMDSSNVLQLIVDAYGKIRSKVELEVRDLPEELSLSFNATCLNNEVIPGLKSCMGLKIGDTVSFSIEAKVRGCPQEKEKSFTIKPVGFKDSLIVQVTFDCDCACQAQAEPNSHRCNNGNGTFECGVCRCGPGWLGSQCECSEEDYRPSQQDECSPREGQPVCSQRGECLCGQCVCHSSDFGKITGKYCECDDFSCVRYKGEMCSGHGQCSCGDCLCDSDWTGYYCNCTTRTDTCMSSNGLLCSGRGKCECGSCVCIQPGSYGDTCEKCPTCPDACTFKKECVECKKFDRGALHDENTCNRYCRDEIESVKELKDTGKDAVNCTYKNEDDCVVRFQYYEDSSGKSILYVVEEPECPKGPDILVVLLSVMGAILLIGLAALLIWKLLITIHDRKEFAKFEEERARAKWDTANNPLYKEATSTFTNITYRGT
# assay procedure: Inhibition of fibrinogen-mediated platelet aggregation
# Assay type: cell-based
# conditions used: compound at 100 μM; thrombin-activated human platelets, human fibrinogen added
Where a SMILES comes first, the peptide text is derived from it. [ ]: non-standard residue; d: D form. Inp = O=C(O)C1CCNCC1

>  <compound>
CC(C)[C@H](NC(=O)[C@H](CC(=O)O)NC(=O)CNC(=O)C1CCNCC1)C(=O)O (H-[Inp]GDV-OH)

>  <target or test system>
Human Platelets (Homo sapiens, UniProt P05106+P08514)

>  <unit abbrev>
%

>  <inhibition at 100 µM>
86

$$$$
>  <compound>
CC(C)[C@H](NC(=O)[C@H](CC(=O)O)NC(=O)CNC(=O)C1CCN(C(=N)N)CC1)C(=O)O

>  <target or test system>
Human Platelets (Homo sapiens, UniProt P05106+P08514)

>  <unit abbrev>
%

>  <inhibition at 100 µM>
92

$$$$
>  <compound>
CC(C)[C@H](NC(=O)[C@H](CC(=O)O)NC(=O)CNC(=O)C1CCCN(C(=N)N)C1)C(=O)O (stereo partly shown)

>  <target or test system>
Human Platelets (Homo sapiens, UniProt P05106+P08514)

>  <unit abbrev>
%

>  <inhibition at 100 µM>
87

$$$$
>  <compound>
CC(C)[C@H](NC(=O)[C@H](CC(=O)O)NC(=O)CNC(=O)C1CCCNC1)C(=O)O (stereo partly shown)

>  <target or test system>
Human Platelets (Homo sapiens, UniProt P05106+P08514)

>  <unit abbrev>
%

>  <inhibition at 100 µM>
78

$$$$
